Source listed as ChEMBL document CHEMBL3739271.

Experiment: Cytotoxicity against human HOP92 cells by SRB assay
Type: functional
Details: HOP-92
Quick reference for GI50 among some compounds
Unit nM implied. Number only.

Challenge: What value of GI50 has been recorded for this entry: COc1cc(/C=C(\C#N)c2cc(OC)c(OC)c(OC)c2)cc(OC)c1
Response given: 3570

Challenge: What value of GI50 has been recorded for this entry: COc1ccc(/C=C(/C#N)c2ccc(OC)c(OC)c2)cc1O
Response given: 860

====

Test system: KM12
Assay: Cytotoxicity against human KM12 cells by SRB assay
Format: functional
Quick reference for GI50 among some compounds
Unit nM implied. Number only.

Some entries whose results are on file:
COc1ccc(/C=C/c2cc(OC)cc(OC)c2/C=C(\C#N)c2ccccc2OC)cc1 : 640
COc1ccc(/C=C/c2cc(OC)cc(OC)c2/C=C(\C#N)c2ccc(OC)cc2)cc1 : 780
COc1cc(/C=C(\C#N)c2cc(OC)c(OC)c(OC)c2)cc(OC)c1 : 4970
COc1ccc(/C=C(\C#N)c2ccc(OC)c(OC)c2)cc1O : 20
COc1ccc(/C=C\c2cc(OC)c(OC)c(OC)c2)cc1O [COMBRETASTATIN A4] : 5
COc1ccc(/C=C(/C#N)c2ccc(OC)c(OC)c2)cc1O : 40

Challenge: What value of GI50 has been recorded for this entry: COc1ccc(/C=C(\C#N)c2cc(OC)cc(OC)c2)cc1
Response given: 380

====

Assay: Cytotoxicity against human HCT116 cells by SRB assay
Assay type: functional
Conditions: HCT-116
Value type: GI50

COc1ccc(/C=C(/C#N)c2cc(OC)c(OC)c(OC)c2)cc1O : < 10 nM
COc1ccc(/C=C/c2cc(OC)cc(OC)c2/C=C(\C#N)c2ccc(OC)cc2)cc1 : 490 nM
COc1ccc(/C=C(\C#N)c2cc(OC)cc(OC)c2)cc1 : 330 nM
COc1ccc(/C=C(\C#N)c2ccc(OC)c(OC)c2)cc1O : 40 nM

Now examine the next entry.
Challenge: What value of GI50 has been recorded for this entry: COc1ccc(/C=C(\C#N)c2cc(OC)c(OC)c(OC)c2)cc1
Response given: < 10 nM

====

Test: Cytotoxicity against human IGROV1 cells by SRB assay
Format: functional
Settings: IGROV-1
Response field label: string, one of Satisfied (GI50 strictly below 2000 nM) or Not satisfied.

Example results:
COc1ccc(/C=C\c2cc(OC)c(OC)c(OC)c2)cc1O : Satisfied
COc1ccc(/C=C(\C#N)c2cc(OC)c(OC)c(OC)c2)cc1 : Satisfied
COc1ccc(/C=C(\C#N)c2ccc(OC)c(OC)c2)cc1O : Satisfied
COc1ccc(/C=C(\C#N)c2cc(OC)c(OC)c(OC)c2)cc1O : Satisfied
COc1ccc(/C=C/c2cc(OC)cc(OC)c2/C=C(\C#N)c2ccc(OC)cc2)cc1 : Not satisfied

Challenge: Take the compound COc1ccc(/C=C(/C#N)c2cc(OC)c(OC)c(OC)c2)cc1O and say whether its GI50 is less than 2000 nM.
Response given: Satisfied

Challenge: Take the compound COc1cc(/C=C(\C#N)c2cc(OC)c(OC)c(OC)c2)cc(OC)c1 and say whether its GI50 is less than 2000 nM.
Response given: Not satisfied

Challenge: Take the compound COc1ccc(/C=C(\C#N)c2cc(OC)cc(OC)c2)cc1 and say whether its GI50 is less than 2000 nM.
Response given: Satisfied

Challenge: Take the compound COc1ccc(/C=C(/C#N)c2ccc(OC)c(OC)c2)cc1O and say whether its GI50 is less than 2000 nM.
Response given: Satisfied

Challenge: Take the compound COc1ccc(/C=C/c2cc(OC)cc(OC)c2/C=C(\C#N)c2ccccc2OC)cc1 and say whether its GI50 is less than 2000 nM.
Response given: Not satisfied

====

Experiment: Cytotoxicity against human SF268 cells by SRB assay
Format: functional
Details: SF-268
Value type: log10 of GI50 (log10 of the value in µM)
On a log10 scale: recorded GI50, unit µM.

Some entries whose results are on file:
COc1ccc(/C=C(\C#N)c2cc(OC)c(OC)c(OC)c2)cc1 : -1.40
COc1ccc(/C=C\c2cc(OC)c(OC)c(OC)c2)cc1O : -2.22
COc1ccc(/C=C(\C#N)c2ccc(OC)c(OC)c2)cc1O : -1.22
COc1ccc(/C=C(/C#N)c2ccc(OC)c(OC)c2)cc1O : -1.10

Challenge: What value of log10 of GI50 has been recorded for this entry: COc1ccc(/C=C/c2cc(OC)cc(OC)c2/C=C(\C#N)c2ccccc2OC)cc1
Response given: 0.62

====

Quick reference for GI50 among some molecules
System: CCRF-CEM
Assay: Cytotoxicity against human CCRF-CEM cells by SRB assay
Format: functional
Unit nM implied. Number only.

COc1cc(/C=C(\C#N)c2cc(OC)c(OC)c(OC)c2)cc(OC)c1 : 51200
COc1ccc(/C=C/c2cc(OC)cc(OC)c2/C=C(\C#N)c2ccc(OC)cc2)cc1 : 750
COc1ccc(/C=C(\C#N)c2cc(OC)c(OC)c(OC)c2)cc1 : 30
COc1ccc(/C=C/c2cc(OC)cc(OC)c2/C=C(\C#N)c2ccccc2OC)cc1 : 2240
COc1ccc(/C=C(/C#N)c2ccc(OC)c(OC)c2)cc1O : 40

Challenge: Request: GI50, test system CCRF-CEM, entry COc1ccc(/C=C(\C#N)c2cc(OC)cc(OC)c2)cc1
Response given: 320

Challenge: Request: GI50, test system CCRF-CEM, entry COc1ccc(/C=C\c2cc(OC)c(OC)c(OC)c2)cc1O [COMBRETASTATIN A4]
Response given: 3

Challenge: Request: GI50, test system CCRF-CEM, entry COc1ccc(/C=C(\C#N)c2ccc(OC)c(OC)c2)cc1O
Response given: 30

====

Assay: Cytotoxicity against human LOXIMVI cells by SRB assay
Type: functional
Settings: LOX IMVI
Response field label: string, one of Yes (GI50 strictly below 60 nM) or No.

COc1cc(/C=C(\C#N)c2cc(OC)c(OC)c(OC)c2)cc(OC)c1 : No

Challenge: Take the compound COc1ccc(/C=C(\C#N)c2cc(OC)cc(OC)c2)cc1 and say whether its GI50 is less than 60 nM.
Response given: No

====

Assay: Cytotoxicity against human SW620 cells by SRB assay
Format: functional
Settings: SW-620
Value type: GI50 (nM)
Unit nM implied. Number only.

Some entries whose results are on file:
COc1ccc(/C=C(\C#N)c2cc(OC)c(OC)c(OC)c2)cc1 : 10
COc1cc(/C=C(\C#N)c2cc(OC)c(OC)c(OC)c2)cc(OC)c1 : 5170
COc1ccc(/C=C/c2cc(OC)cc(OC)c2/C=C(\C#N)c2ccccc2OC)cc1 : 710

Challenge: What value of GI50 has been recorded for this entry: COc1ccc(/C=C(\C#N)c2cc(OC)cc(OC)c2)cc1
Response given: 420

Challenge: What value of GI50 has been recorded for this entry: COc1ccc(/C=C(\C#N)c2ccc(OC)c(OC)c2)cc1O
Response given: 40

Challenge: What value of GI50 has been recorded for this entry: COc1ccc(/C=C/c2cc(OC)cc(OC)c2/C=C(\C#N)c2ccc(OC)cc2)cc1
Response given: 500

Challenge: What value of GI50 has been recorded for this entry: COc1ccc(/C=C\c2cc(OC)c(OC)c(OC)c2)cc1O [COMBRETASTATIN A4]
Response given: 3

Challenge: What value of GI50 has been recorded for this entry: COc1ccc(/C=C(/C#N)c2ccc(OC)c(OC)c2)cc1O
Response given: 40

====

Assay: Cytotoxicity against human UO31 cells by SRB assay
Type: functional
Settings: UO-31
Quick reference for log10 GI50 among some compounds
On a log10 scale: recorded GI50, unit nM.

Some entries whose results are on file:
COc1ccc(/C=C(\C#N)c2ccc(OC)c(OC)c2)cc1O : 1.78
COc1ccc(/C=C(/C#N)c2ccc(OC)c(OC)c2)cc1O : 1.95
COc1cc(/C=C(\C#N)c2cc(OC)c(OC)c(OC)c2)cc(OC)c1 : 3.28
COc1ccc(/C=C/c2cc(OC)cc(OC)c2/C=C(\C#N)c2ccccc2OC)cc1 : 3.54

Challenge: What value of log10 GI50 has been recorded for this entry: COc1ccc(/C=C(\C#N)c2cc(OC)cc(OC)c2)cc1
Response given: 2.69

Challenge: What value of log10 GI50 has been recorded for this entry: COc1ccc(/C=C\c2cc(OC)c(OC)c(OC)c2)cc1O
Response given: 1.28

Challenge: What value of log10 GI50 has been recorded for this entry: COc1ccc(/C=C/c2cc(OC)cc(OC)c2/C=C(\C#N)c2ccc(OC)cc2)cc1
Response given: 2.91

====

System: SR
Assay: Cytotoxicity against human SR cells by SRB assay
Format: functional
Quick reference for GI50 among some compounds
Unit nM implied. Number only.

Some entries whose results are on file:
COc1ccc(/C=C\c2cc(OC)c(OC)c(OC)c2)cc1O : 3
COc1ccc(/C=C/c2cc(OC)cc(OC)c2/C=C(\C#N)c2ccccc2OC)cc1 : 280
COc1cc(/C=C(\C#N)c2cc(OC)c(OC)c(OC)c2)cc(OC)c1 : 4140

Challenge: What value of GI50 has been recorded for this entry: COc1ccc(/C=C(/C#N)c2ccc(OC)c(OC)c2)cc1O
Response given: 30

Challenge: What value of GI50 has been recorded for this entry: COc1ccc(/C=C/c2cc(OC)cc(OC)c2/C=C(\C#N)c2ccc(OC)cc2)cc1
Response given: 910

Challenge: What value of GI50 has been recorded for this entry: COc1ccc(/C=C(\C#N)c2ccc(OC)c(OC)c2)cc1O
Response given: 20

Challenge: What value of GI50 has been recorded for this entry: COc1ccc(/C=C(\C#N)c2cc(OC)cc(OC)c2)cc1
Response given: 290
